Target: T1, APBA2_1, Q99767
T1 sequence (Q99767 563-664, limits assumed, looked up): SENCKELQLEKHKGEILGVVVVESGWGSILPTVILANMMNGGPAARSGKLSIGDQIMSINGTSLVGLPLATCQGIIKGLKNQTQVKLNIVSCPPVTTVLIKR
Experiment: holdup assay
Parameters: key: below the threshold = too weak to quantify, mostly under pKd 3.1 to 4
Details: plain residues with an end cap or a label only (N-terminal biotin on a linker: ttds)

| binder | pKd |
| --- | --- |
| PPRQRSETQV [HPV82-E6, Q9IR59] | below the threshold |
| DLDEEEDTHL [PODXL, O00592] | below the threshold |
| PSRDRKETSI [RALBP1, Q15311] | below the threshold |
